Target: RSV prefusion F (preF), subtype B (respiratory syncytial virus, subtype B)
Test: BLI, IgG
Metric: Kd

INSERT INTO results (binder, metric, result) VALUES
  ('ADI-14422 (antibody, V domains shown, also called Ab 88) VH: QVQLVQSGAEVKKPGSSVKVSCKASGGTFSSYTINWVRQAPGQGLEWMGRIIPILGIANYAQKFQGRVTITADKSTSTAYMELSSLRSEDTAVYYCARRHQDTYGMDVWGQGTTVTVSS VL: QSVLTQPPSVSGAPGQRVTISCTGSSSNIGAGYDVHWYQQLPGTAPKLLIYGNSNRPSGVPDRFSGSKSGTSASLAITGLQAEDEADYYCQSYDSSLSGSVFGGGTKVTVL', 'Kd', '33.9 nM'),
  ('ADI-21028 (antibody, V domains shown) VH: EVQLVESGGALVKPGGSLRLSCVASGFTFSDYYMHWVRQAPGKGLEWVSYISSTSSFTNYADSVKGRFIISRDNAKNSLYLQLNSLRAEDTAVYYCARDESSGWQTRRHFGMDVWGQGTLVTVSS VL: EIVMTQSPSTLSASVGDRVTITCRASQSLNTWLAWYQHKPGKAPKLLISTASSLQSGVPSRFSASGSGTEFTLTISSLQPDDFATYYCQQFRGTFGPGTKVEIK', 'Kd', '3.33 nM'),
  ('ADI-21005 (antibody, V domains shown) VH: EVQLVESGGAVVQPGGSLRLSCVASGLAFDEYTMHWVRQSSAKGLEWISLISWNGGITYYADSVKGRFTISRDNSKNSLYLQMNSLRTEDTATYFCARLGYGSGSDYGDDYWGQGTLVTVSS VL: ETTLTQSPGTLSLSPGERATLSCRASQSVSNNYLAWYQQKPGQAPRLLIHGASTRVTGIPARFSGSGSGTDFTLTISRLEPEDFAVYYCHQYHSSPRTFGQGTKVDIK', 'Kd', '7.7 nM');
